- test target: human β3-AR (Homo sapiens, UniProt P13945)
- Construct: expressed in transfected cells; host or cells: CHO (Chinese hamster ovary) cells, stably transfected
- Sequence (P13945 whole entry): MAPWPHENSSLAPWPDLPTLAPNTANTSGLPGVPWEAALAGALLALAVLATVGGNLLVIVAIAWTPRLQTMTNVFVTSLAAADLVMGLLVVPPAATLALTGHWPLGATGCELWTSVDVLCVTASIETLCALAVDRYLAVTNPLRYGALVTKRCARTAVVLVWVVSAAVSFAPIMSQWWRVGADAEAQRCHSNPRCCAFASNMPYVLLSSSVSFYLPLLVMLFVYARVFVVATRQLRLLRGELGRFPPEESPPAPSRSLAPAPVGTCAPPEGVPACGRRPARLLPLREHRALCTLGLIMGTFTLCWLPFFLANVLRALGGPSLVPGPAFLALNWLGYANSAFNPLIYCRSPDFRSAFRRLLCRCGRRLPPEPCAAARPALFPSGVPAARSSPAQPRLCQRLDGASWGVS
- experiment notes: cAMP functional agonist assay (LANCE TR-FRET) in CHO cells expressing cloned human β3-AR
- Type: cell-based
- measurement parameters: percent maximum activation relative to isoproterenol
Listed here are molecules together with their documented Human β3-AR Agonist Activity (%).
Give just the numeric value; % need not be written.

CN(Cc1cccnc1)C(=O)c1ccc(C[C@@H]2CC[C@H]([C@H](O)c3ccc(NC4CC4)nc3)N2)cc1 : 27
COc1ncccc1CN(C)C(=O)c1ccc(C[C@@H]2CC[C@H]([C@H](O)c3ccccc3)N2)cc1 : 96
COC(CN(C)C(=O)c1ccc(C[C@@H]2CC[C@H]([C@H](O)c3ccccc3)N2)cc1)c1cccc(=O)[nH]1 (stereo partly drawn) : 101

Next molecule, Human β3-AR Agonist Activity (%) to be filled in.
Identify the measured Human β3-AR Agonist Activity (%) of CC(C)c1cc(CN(C)C(=O)c2ccc(C[C@@H]3CC[C@H]([C@H](O)c4ccc(Cl)nc4)N3)cc2)n[nH]1 for human β3-AR (Homo sapiens, UniProt P13945).
95

---

- test target: human β3-AR (Homo sapiens, UniProt P13945)
- Construct: expressed in transfected cells; host or cells: CHO (Chinese hamster ovary) cells, stably transfected
- experiment notes: cAMP functional agonist assay (LANCE TR-FRET) in CHO cells expressing cloned human β3-AR
- Format: cell-based
- measurement parameters: percent maximum activation relative to isoproterenol
measure: Human β3-AR Agonist Activity (%)
Give just the numeric value; % need not be written.

CN(Cc1nc2ccsc2c(=O)[nH]1)C(=O)c1ccc(C[C@@H]2CC[C@H]([C@H](O)c3ccc(Cl)nc3)N2)cc1 : 99
COc1c(CN(C)C(=O)c2ccc(C[C@@H]3CC[C@H]([C@H](O)c4ccc(Cl)nc4)N3)cc2)n[nH]c1C : 102
CCC(c1cc(C)n[nH]1)N(C)C(=O)c1ccc(C[C@@H]2CC[C@H]([C@H](O)c3ccc(Cl)nc3)N2)cc1 (stereo partly shown) : 102
COCc1cc(CN(C)C(=O)c2ccc(C[C@@H]3CC[C@H]([C@H](O)c4ccccc4)N3)cc2)n[nH]1 : 102
Cc1nnc(-c2cncc(CN(C)C(=O)c3ccc(C[C@@H]4CC[C@H]([C@H](O)c5ccccc5)N4)cc3)c2)o1 : 101
CN(Cc1cccc(=O)[nH]1)C(=O)c1ccc(C[C@@H]2CC[C@H]([C@H](O)c3ccccc3)N2)cc1 : 103

Quick check: Human β3-AR Agonist Activity (%) of CN(Cc1cncc(C(C)(C)O)c1)C(=O)c1ccc(C[C@@H]2CC[C@H]([C@H](O)c3ccccc3)N2)cc1 ?
109

---

Listed here are compounds together with their documented EC50.
- test target: human β3-AR (Homo sapiens, UniProt P13945)
- Construct: expressed in transfected cells; host or cells: CHO (Chinese hamster ovary) cells, stably transfected
- experiment notes: cAMP functional agonist assay (LANCE TR-FRET) in CHO cells expressing cloned human β3-AR
- Format: cell-based
- measurement parameters: CHO cells stably expressing cloned human β3-adrenoceptor; cAMP release; read-out: Human β3-AR Agonism EC50

Example cases with answers are listed next.
COCc1cc(CN(C)C(=O)c2ccc(C[C@@H]3CC[C@H]([C@H](O)c4ccc(Cl)cc4)N3)cc2)n[nH]1 [Example 9-G] : 4 nM
CN(Cc1cccnc1)C(=O)c1ccc(C[C@@H]2CC[C@H]([C@H](O)c3ccc(C(N)=O)nc3)N2)cc1 [Example 21-K] : 112 nM
CN(Cc1ccc(=O)[nH]c1)C(=O)c1ccc(C[C@@H]2CC[C@H]([C@H](O)c3cccc(F)c3)N2)cc1 [Example 28-C] : 816 nM

Next compound, EC50 to be filled in.
Quick check: EC50 of CN(Cc1n[nH]c2c1CCCC2)C(=O)c1ccc(C[C@@H]2CC[C@H]([C@H](O)c3cccnc3)N2)cc1 [Example 14-H] ?
55 nM
